Values of pKi for UniProt Q99720, collected from a number of published sources:
pKi: −log10 of the molar value.

Request: Report pKi for Cc1nn2c(C3CCCN(Cc4ccc(Cl)cc4)C3)ccnc2c1CN1CCS(=O)(=O)CC1 (stereo not drawn) tested on UniProt Q99720.
Result: 6.00 to 6.30

Request: // repeat for CN[C@H]1CC[C@@]2(CC1)CN(c1ccccc1)CC1(CC1)O2 and report
Result: ≤ 6.30

Request: Also need CCC[C@@H](c1nc2cc(F)c(Br)cc2c(=O)n1CC)N1CCN(C)C[C@@H](C)C1 , thanks.
Result: < 6.00

Request: Note, next up: CCC[C@H](c1nc2ccc(OC(F)(F)F)cc2c(=O)n1CC)N1CCCN(C)CC1
Result: 6.00 to 6.30

Request: Lookup CCCC(c1nc2ncc(F)cc2c(=O)n1CC)N1CCCN(C)CC1 (stereo not drawn)
Result: < 6.00

Request: Can you handle CCC[C@H](c1nc2ccc(Br)cc2c(=O)n1CC)N1CCN[C@@H](C)CC1 next?
Result: 6.00 to 6.30

====

pKi: −log10 of the molar value.
// note: pKi values for Human σ1 receptor (Homo sapiens, UniProt Q99720) were reported in different studies

Request: Form field: pKi recorded for CCN1C[C@@]2(CCCN(Cc3ccc(C#N)cc3)CC2)O[C@@H](C)C1=O with Human σ1 receptor (Homo sapiens, UniProt Q99720) (enter value)
Result: ≤ 6.30

Request: Then CCOc1cc(-c2c(C)nn3c(C4CCCN(Cc5ccc(Cl)cc5)C4)ccnc23)ccn1 (stereo not shown) ?
Result: < 6.00

Request: What do you have for CC(C)N1CC2(CN(CCC(C)(C)C)C2)O[C@H](C)C1=O ?
Result: ≤ 6.30

Request: Follow-up item: CCC[C@H](c1nc2ncc(Br)cc2c(=O)n1CC)N1CCN(C)C[C@@H](C)C1
Result: < 6.00

====

Below, Ki values reported for UniProt:Q99720 across several publications.

Request: Consider the compound shown here: CN(C)Cc1cc2nccc(C3CCCN(Cc4ccccc4)C3)n2n1 (centres unmarked) What is its recorded Ki?
Result: > 1000 nM

Request: Please give the result for COc1cnccc1-c1c(C)nn2c(C3CCCN(Cc4ccccc4)C3)ccnc12 (centres unmarked) too.
Result: > 1000 nM

Request: Note, next up: CCCC(c1nc2ccc(F)c(F)c2c(=O)n1CC)N1CCCN(C)CC1 (centres unmarked)
Result: < 500 nM

Request: Now consider CCC[C@H](c1nc2ccc(F)cc2c(=O)n1Cc1ccoc1)N1CCCN(CC)CC1 .
Result: < 500 nM

Request: Subsequent entry: CCN1CC2(CC2)O[C@]2(CC[C@H](N(C)CCC(C)C)CC2)C1
Result: < 500 nM

Request: Repeat for the following compound: CCCC(c1nc2cc(Br)c(F)cc2c(=O)n1CCC)N1CCCN(CC)CC1 (centres unmarked)
Result: < 500 nM

Request: Please answer likewise for Cc1nn2c([C@@H]3CCCN(Cc4ccc(Cl)cc4)C3)ccnc2c1CNC[C@H]1CCOC(C)(C)C1
Result: < 500 nM

Request: Likewise for CCC[C@@H](c1nc2cc(F)c(Cl)cc2c(=O)n1CC)N1CCNC[C@@H](C)C1 ?
Result: > 1000 nM
